# study.system: Estrogen receptor (Ovis aries) (UniProt P49885+Q9TU15)
# experiment.notes: Relative binding affinity for lamb uterine estrogen receptor at 4C
# Type: protein assay
Classify: Satisfied when RBA is strictly less than 50; Not satisfied when RBA is not.

CO[C@H]1C[C@@]2(C)[C@@H](CC[C@@]2(O)/C=C\Cl)[C@@H]2CCc3cc(O)ccc3[C@H]21 ... Satisfied
C[C@]12CC[C@@H]3c4ccc(O)cc4CC[C@H]3[C@@H]1CC[C@@]2(O)/C=C/Cl ... Not satisfied
C[C@]12CC[C@@H]3c4ccc(O)cc4CC[C@H]3[C@@H]1CC[C@@]2(O)/C=C\I ... Not satisfied
CO[C@H]1C[C@@]2(C)[C@@H](CC[C@@]2(O)/C=C/Cl)[C@@H]2CCc3cc(O)ccc3[C@H]21 ... Satisfied
C=C[C@H]1C[C@@]2(C)[C@@H](CC[C@@]2(O)/C=C/Cl)[C@@H]2CCc3cc(O)ccc3[C@H]21 ... Not satisfied
CO[C@H]1C[C@@]2(C)[C@@H](CC[C@@]2(O)/C=C\I)[C@@H]2CCc3cc(O)ccc3[C@H]21 ... Satisfied
C=C[C@H]1C[C@@]2(C)[C@@H](CC[C@@]2(O)/C=C/I)[C@@H]2CCc3cc(O)ccc3[C@H]21 ... Not satisfied
C=C[C@H]1C[C@@]2(C)[C@@H](CC[C@@]2(O)/C=C\I)[C@@H]2CCc3cc(O)ccc3[C@H]21 ... Not satisfied

* * *

# study.system: Estrogen receptor (Ovis aries) (UniProt P49885+Q9TU15)
# experiment.notes: Relative binding affinity for lamb uterine estrogen receptor at 25 degree C
# Type: protein assay
Items are presented alongside their recorded RBA.
experimental.readout: RBA

CO[C@H]1C[C@@]2(C)[C@@H](CC[C@@]2(O)/C=C/I)[C@@H]2CCc3cc(O)ccc3[C@H]21 ... 65
CO[C@H]1C[C@@]2(C)[C@@H](CC[C@@]2(O)/C=C\I)[C@@H]2CCc3cc(O)ccc3[C@H]21 ... 513
C=C[C@H]1C[C@@]2(C)[C@@H](CC[C@@]2(O)/C=C\Cl)[C@@H]2CCc3cc(O)ccc3[C@H]21 ... 704
C[C@]12CC[C@@H]3c4ccc(O)cc4CC[C@H]3[C@@H]1CC[C@@]2(O)/C=C\I ... 776
C[C@]12CC[C@@H]3c4ccc(O)cc4CC[C@H]3[C@@H]1CC[C@@]2(O)/C=C/Cl ... 89
CO[C@H]1C[C@@]2(C)[C@@H](CC[C@@]2(O)/C=C\Cl)[C@@H]2CCc3cc(O)ccc3[C@H]21 ... 195
C=C[C@H]1C[C@@]2(C)[C@@H](CC[C@@]2(O)/C=C/Cl)[C@@H]2CCc3cc(O)ccc3[C@H]21 ... 724
CO[C@H]1C[C@@]2(C)[C@@H](CC[C@@]2(O)/C=C/Cl)[C@@H]2CCc3cc(O)ccc3[C@H]21 ... 65

* * *

# study.system: Estrogen receptor (Ovis aries) (UniProt P49885+Q9TU15)
# experiment.notes: Relative binding affinity for lamb uterine estrogen receptor at 25 degree C
# Assay type: protein assay
experimental.readout: RBA

C[C@]12CC[C@@H]3c4ccc(O)cc4CC[C@H]3[C@@H]1CC[C@@]2(O)/C=C\Cl ... 199
C[C@]12CC[C@@H]3c4ccc(O)cc4CC[C@H]3[C@@H]1CC[C@@]2(O)/C=C/I ... 62
C=C[C@H]1C[C@@]2(C)[C@@H](CC[C@@]2(O)/C=C/I)[C@@H]2CCc3cc(O)ccc3[C@H]21 ... 447
C=C[C@H]1C[C@@]2(C)[C@@H](CC[C@@]2(O)/C=C\I)[C@@H]2CCc3cc(O)ccc3[C@H]21 ... 1200

* * *

# study.system: Estrogen receptor (Ovis aries) (UniProt P49885+Q9TU15)
# experiment.notes: Relative binding affinity for lamb uterine estrogen receptor at 4C
# Type: protein assay
Items are presented alongside their recorded RBA.
experimental.readout: RBA

C[C@]12CC[C@@H]3c4ccc(O)cc4CC[C@H]3[C@@H]1CC[C@@]2(O)/C=C/I ... 77
C=C[C@H]1C[C@@]2(C)[C@@H](CC[C@@]2(O)/C=C\Cl)[C@@H]2CCc3cc(O)ccc3[C@H]21 ... 101
CO[C@H]1C[C@@]2(C)[C@@H](CC[C@@]2(O)/C=C/I)[C@@H]2CCc3cc(O)ccc3[C@H]21 ... 34
C[C@]12CC[C@@H]3c4ccc(O)cc4CC[C@H]3[C@@H]1CC[C@@]2(O)/C=C\Cl ... 126
